- System: Toledo
- measurement protocol: Growth inhibition assay for NHL lines
- Assay type: cell-based
- test parameters: NHL DLBCL, 96 hours, n ≧ 3
parameter measured: pIC50
In simple prose, pIC50 is minus the logarithm base ten of a concentration in moles per litre.

Q: Answer with the recorded pIC50 of CO[C@H]1CC[C@H](N2C(=O)CNc3ncc(-c4ccc(C(C)(C)O)nc4)nc32)CC1 [Compound 1] only.
A: 6.36

====

- Test system: SU-DHL-5
- measurement protocol: Growth inhibition assay for NHL lines
- Format: cell-based
- test parameters: SU-DHL-5, NHL DLBCL, 96 hours, n ≧ 3
parameter measured: IC50 (nM)
Supply the numeric figure in nM, leaving out any unit text.

Q: // fetch IC50; item: `CO[C@H]1CC[C@H](N2C(=O)CNc3ncc(-c4ccc(C(C)(C)O)nc4)nc32)CC1` ; system: SU-DHL-5
A: 260
